B1: library; numbered along this chain (parent)
chain: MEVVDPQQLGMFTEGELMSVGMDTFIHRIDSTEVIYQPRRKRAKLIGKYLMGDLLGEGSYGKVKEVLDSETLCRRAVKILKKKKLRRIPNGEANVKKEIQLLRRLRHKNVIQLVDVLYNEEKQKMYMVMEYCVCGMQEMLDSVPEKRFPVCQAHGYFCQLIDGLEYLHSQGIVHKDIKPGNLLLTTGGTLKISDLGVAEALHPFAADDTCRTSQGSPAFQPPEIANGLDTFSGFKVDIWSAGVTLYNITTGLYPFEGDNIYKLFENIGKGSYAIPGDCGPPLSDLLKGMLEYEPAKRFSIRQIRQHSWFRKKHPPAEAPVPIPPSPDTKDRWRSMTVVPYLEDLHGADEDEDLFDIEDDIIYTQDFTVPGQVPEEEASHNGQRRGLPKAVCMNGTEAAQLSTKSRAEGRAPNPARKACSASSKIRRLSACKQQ

Variants of: B1
test: STK11 functional score (HeLa growth suppression), rescaled enrichment; synonymous median = 1, nonsense median = 0 (normalised score)
run_conditions: with HeLa; variant type: missense
We use 1 as the dividing line for STK11 functional score: on or above the line is true (1), below is false (0).

mutant_designation: L182H
label: false (0)
--
mutant_designation: H306I
label: false (0)
--
mutant_designation: L341R
label: true (1)

Request: Please check the record "G58F" and state if its STK11 functional score is at or above 1.
Result: false (0)

Request: Please check the record "R86M" and state if its STK11 functional score is at or above 1.
Result: false (0)

Request: Please check the record "L167K" and state if its STK11 functional score is at or above 1.
Result: false (0)

Request: Please check the record "L85Y" and state if its STK11 functional score is at or above 1.
Result: false (0)

Request: Please check the record "R40D" and state if its STK11 functional score is at or above 1.
Result: true (1)

Request: Please check the record "I224L" and state if its STK11 functional score is at or above 1.
Result: true (1)

Request: Please check the record "L290M" and state if its STK11 functional score is at or above 1.
Result: false (0)

Request: Please check the record "L386I" and state if its STK11 functional score is at or above 1.
Result: true (1)

Request: Please check the record "P411M" and state if its STK11 functional score is at or above 1.
Result: true (1)

Request: Please check the record "K175T" and state if its STK11 functional score is at or above 1.
Result: true (1)

Request: Please check the record "Q432D" and state if its STK11 functional score is at or above 1.
Result: true (1)

Request: Please check the record "E317G" and state if its STK11 functional score is at or above 1.
Result: true (1)

Request: Please check the record "D359G" and state if its STK11 functional score is at or above 1.
Result: true (1)

Request: Please check the record "K403G" and state if its STK11 functional score is at or above 1.
Result: true (1)

Request: Please check the record "S299G" and state if its STK11 functional score is at or above 1.
Result: true (1)

src = the supplement of paper PMC12338614
